Here the recorded MIC is given for each entry.
- Tested on: Streptococcus pyogenes
- EXPERIMENT SUMMARY: Antibacterial activity against macrolide-resistant Streptococcus pyogenes 2011 harboring mef(A) gene after 35 passages and 10 compound-free subculturing by retest method
Value expressed in µg/mL; do not type the unit.

COMPOUND SMILES	EXPERIMENTAL TARGET	ENDPOINT VALUE
CC[C@H]1OC(=O)[C@H](C)[C@@H](O[C@H]2C[C@@](C)(OC)[C@@H](O)[C@H](C)O2)[C@H](C)[C@@H](O[C@@H]2O[C@H](C)C[C@H](N(C)C)[C@H]2O)[C@](C)(OC)C[C@@H](C)C(=O)[C@H](C)[C@@H](O)[C@]1(C)O	Streptococcus pyogenes	4

Here is the next item to consider.
INPUT: Provide value of MIC for this record tested with Streptococcus pyogenes: CC[C@H]1OC(=O)[C@H](C)C(=O)[C@H](C)[C@@H](O[C@@H]2O[C@H](C)C[C@H](N(C)C)[C@H]2O)[C@](C)(OC)C[C@@H](C)C(=O)[C@H](C)[C@H]2N(CCCCn3cnc(-c4cccnc4)c3)C(=O)O[C@]12C
OUTPUT: 0.25
